details: in chloroform, 293.15 K
experimentalEndpoint: solubility (mole fraction)
Answer using only a numeral; do not append any unit.

INPUT: I'd like to know its solubility (mole fraction). The molecule in question is CC(=O)O[C@H]1NC(=O)[C@@H]1[C@@H](C)O[Si](C)(C)C(C)(C)C
OUTPUT: 0.258

* * *

conditions: in n-butyl acetate, 308.15 K
experimentalEndpoint: solubility (mole fraction)
Answer using only a numeral; do not append any unit.

INPUT: I'd like to know its solubility (mole fraction). The compound in question is CC(=O)O[C@H]1NC(=O)[C@@H]1[C@@H](C)O[Si](C)(C)C(C)(C)C
OUTPUT: 0.18
